Target: EphB2-Fc with EB2-His (Mus musculus)
Sequence (P54763 19-543 limits assumed): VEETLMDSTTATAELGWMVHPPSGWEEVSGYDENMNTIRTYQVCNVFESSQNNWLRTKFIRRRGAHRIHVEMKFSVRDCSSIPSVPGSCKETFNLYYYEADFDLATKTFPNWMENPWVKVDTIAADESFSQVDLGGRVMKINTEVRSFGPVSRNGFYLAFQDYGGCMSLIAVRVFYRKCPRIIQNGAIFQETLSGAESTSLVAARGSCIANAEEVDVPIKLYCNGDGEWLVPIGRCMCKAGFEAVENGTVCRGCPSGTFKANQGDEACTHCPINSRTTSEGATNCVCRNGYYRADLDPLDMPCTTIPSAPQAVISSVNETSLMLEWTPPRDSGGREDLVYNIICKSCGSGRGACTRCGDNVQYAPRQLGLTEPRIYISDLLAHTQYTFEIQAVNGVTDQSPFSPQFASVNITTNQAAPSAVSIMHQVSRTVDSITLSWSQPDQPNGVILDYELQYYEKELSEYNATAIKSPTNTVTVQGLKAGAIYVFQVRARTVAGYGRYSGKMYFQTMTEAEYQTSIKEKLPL
pIC50: −log10 of the molar value.
Measurement Label: pIC50

In plain terms, Oc1c(Br)cc(CN2CCOCC2)c2cccnc12 [Compound 5] has a documented pIC50 of ~5.00
